Target: Cyclin-dependent kinase 2/cyclin E1 (Homo sapiens, UniProt P24941)
Test: Inhibition of human recombinant CDK2/CycE using HHASPRK as substrate by ESI-MS analysis
pKi: −log10 of the molar value.
readout-kind: pKi

I: O=C1C(C2=C3C(=Nc4ccccc43)/C(=C\c3ccc(O)cc3)C2=O)=C2C(=Nc3ccccc32)/C1=C\c1ccc(O)cc1 [SCYTONEMIN]
II: CN(C)c1ncnc2nc[nH]c12 [DIMETHYLADENINE]
III: CCCCc1c(-c2ccc(OC)cc2)[nH]c2nccnc12 [ALOISINE]
**Query** In a descending ranking, list each entry from above by its pKi, from the largest value down to the smallest. Kindly provide the labels arranged according to the requested ordering.
**Result** III, I, II
(III: 9.28, I: 6.43, II: 5.96)
